tested-target: PI3Kδ (Homo sapiens)
Construct: made in house
Sequence (O00329 whole entry): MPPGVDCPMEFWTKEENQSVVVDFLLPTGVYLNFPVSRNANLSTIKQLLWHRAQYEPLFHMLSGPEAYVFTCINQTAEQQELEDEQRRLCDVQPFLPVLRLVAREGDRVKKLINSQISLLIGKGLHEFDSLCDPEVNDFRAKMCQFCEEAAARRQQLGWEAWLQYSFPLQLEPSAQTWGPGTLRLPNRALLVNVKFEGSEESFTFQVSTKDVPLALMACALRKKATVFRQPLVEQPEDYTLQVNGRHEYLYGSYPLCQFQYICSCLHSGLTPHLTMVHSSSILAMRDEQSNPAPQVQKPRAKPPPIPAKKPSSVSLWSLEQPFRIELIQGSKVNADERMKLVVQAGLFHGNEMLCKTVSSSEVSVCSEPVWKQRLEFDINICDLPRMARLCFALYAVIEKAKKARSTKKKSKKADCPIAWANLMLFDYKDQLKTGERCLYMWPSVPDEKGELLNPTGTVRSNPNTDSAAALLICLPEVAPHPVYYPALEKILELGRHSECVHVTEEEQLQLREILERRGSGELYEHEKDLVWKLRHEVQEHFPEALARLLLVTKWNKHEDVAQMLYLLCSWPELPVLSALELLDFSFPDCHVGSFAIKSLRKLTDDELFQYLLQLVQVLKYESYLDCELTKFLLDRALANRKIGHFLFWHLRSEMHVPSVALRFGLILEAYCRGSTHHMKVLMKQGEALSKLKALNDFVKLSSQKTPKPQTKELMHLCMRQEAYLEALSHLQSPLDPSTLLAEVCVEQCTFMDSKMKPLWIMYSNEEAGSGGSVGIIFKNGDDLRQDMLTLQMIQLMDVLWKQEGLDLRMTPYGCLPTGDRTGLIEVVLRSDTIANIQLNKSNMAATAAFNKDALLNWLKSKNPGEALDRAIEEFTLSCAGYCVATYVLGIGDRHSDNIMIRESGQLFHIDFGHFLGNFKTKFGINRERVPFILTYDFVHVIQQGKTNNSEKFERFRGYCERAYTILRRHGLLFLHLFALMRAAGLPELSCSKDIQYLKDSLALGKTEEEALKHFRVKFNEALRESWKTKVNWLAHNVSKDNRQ
Sequence (P27986 whole entry partner): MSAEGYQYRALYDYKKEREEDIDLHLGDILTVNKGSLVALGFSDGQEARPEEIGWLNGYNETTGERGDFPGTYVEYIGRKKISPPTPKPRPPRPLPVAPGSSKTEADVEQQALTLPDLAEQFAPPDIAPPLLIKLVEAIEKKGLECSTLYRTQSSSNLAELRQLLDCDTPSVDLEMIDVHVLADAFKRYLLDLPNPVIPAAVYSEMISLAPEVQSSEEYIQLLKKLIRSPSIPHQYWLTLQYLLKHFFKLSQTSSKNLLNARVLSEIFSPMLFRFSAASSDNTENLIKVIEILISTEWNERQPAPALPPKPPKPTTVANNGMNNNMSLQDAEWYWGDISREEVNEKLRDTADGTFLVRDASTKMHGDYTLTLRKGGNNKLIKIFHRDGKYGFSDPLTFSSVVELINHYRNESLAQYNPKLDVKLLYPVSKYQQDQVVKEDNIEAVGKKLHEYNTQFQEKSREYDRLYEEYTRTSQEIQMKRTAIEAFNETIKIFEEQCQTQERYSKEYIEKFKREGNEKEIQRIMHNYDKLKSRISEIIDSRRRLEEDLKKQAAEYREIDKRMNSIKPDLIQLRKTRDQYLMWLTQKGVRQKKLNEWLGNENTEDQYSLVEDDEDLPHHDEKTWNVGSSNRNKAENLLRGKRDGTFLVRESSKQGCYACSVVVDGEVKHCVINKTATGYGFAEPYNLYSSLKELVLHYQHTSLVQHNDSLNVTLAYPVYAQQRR
method-notes: Enzymatic activity of PI3K isoforms, TR-FRET assay (PIP3 formation)
Assay type: biochemical
stated-conditions: PI3Kδ; TR-FRET, 2×Km ATP, 10 μM PIP2; read-out: IC50
pIC50: −log10 of the molar value.
// values below are reported pIC50

Some compounds with recorded pIC50:
Ask | For the compound shown here, CCC(Nc1nc(N)nc(N)c1Cl)c1nc2cccc(F)c2c(=O)n1-c1cc(F)cc(F)c1 (single isomer, unassigned) [Compound 105a] , give the reported pIC50.
Reply | < 7.30

Ask | For the compound shown here, CC(Nc1nc(N)nc(N)c1C#N)c1nc2c(C(F)F)cccc2c(=O)n1-c1cc(F)cc(F)c1 (single isomer, unassigned) [Compound 57a] , give the reported pIC50.
Reply | 7.30 to 8.00

Ask | For the compound shown here, CC(Nc1nc(N)nc(N)c1C#N)c1nc2cccc(Cl)c2c(=O)n1-c1cc(F)cc(C(F)F)c1 (single isomer, unassigned) [Compound 55a] , give the reported pIC50.
Reply | > 9.00

Ask | For the compound shown here, CC(Nc1nc(N)nc(N)c1C#N)c1nc2cccc(C(=O)O)c2c(=O)n1-c1ccccc1 (single isomer, unassigned) [Compound 162a] , give the reported pIC50.
Reply | < 7.30

Next:
Ask | For the compound shown here, CC(Nc1nc(N)nc(N)c1C#N)c1nc2cccc(C(F)F)c2c(=O)n1-c1ccccc1 (single isomer, unassigned) [Compound 62a] , give the reported pIC50.
Reply | > 9.00
